Hello, the source for this data is PubChem BioAssay, in case you need it.

Method summary: RPMI8226 myeloma cell viability, profiling panel, resazurin fluorescence, basal, 24 h, PK04 Diversity Set (AID 1180);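 further: RPMI8826 multiple myeloma cell line at 5000 cells per well; test concentration not given here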
Run conditions: higher = more signal
Measurement label: z-score
Please state the value as a number alone, without comment.

A selection of reference data follows.
>  <Molecule>
CO[C@H]1O[C@H](CO)[C@@H](OC(=O)Nc2ccc(Br)cc2)[C@H](OC(=O)c2cc3ccccc3[nH]2)[C@H]1OC(=O)c1cc2ccccc2[nH]1

>  <z-score>
-4.77

$$$$
>  <Molecule>
COc1ccc(COC2OC[C@]3(C)[C@H]4C5=C(CN3C(=O)OC(C)(C)C)[C@H](C)C(CO)C(CO)C5CC[C@@H]24)cc1 (some centres not stated)

>  <z-score>
-1.19

$$$$
>  <Molecule>
CC1CC/C=C\[C@H]2OC34C=CCN(C(C)(C)C)C(=O)[C@H]3N(CCCCCCO)C(=O)[C@@H]4C2C(=O)O1 (some centres not stated)

>  <z-score>
-1.14

$$$$
>  <Molecule>
O=C1OCCC/C=C\[C@H]2OC34C=CCN(CCN5CCOCC5)C(=O)[C@H]3N(CCCO)C(=O)[C@@H]4C12 (some centres not stated)

>  <z-score>
0.125

$$$$
>  <Molecule>
CCOC(=O)C=Cc1cc([N+](=O)[O-])ccc1O

>  <z-score>
-0.688

$$$$

Please report the recorded z-score for `CN(C)CCCNC(=O)[C@@]1(c2ccc([N+](=O)[O-])cc2)CC(=O)N(C2CCCCC2)[C@@H]1c1ccc(CO)cc1I` .
-6.61

Please report the recorded z-score for `O=C1O[C@H](c2ccccc2)[C@H](c2ccccc2)N2[C@H]1[C@@H](C(=O)NC[C@H](O)c1ccccc1)[C@]1(C(=O)Nc3ccccc31)[C@H]2c1ccc(OCCO)cc1` .
-3.16

* * *

Target desc: Torsin-1A-interacting protein 1 (Homo sapiens) (UniProt Q5JTV8)
Sequence (Q5JTV8 whole entry, looked up): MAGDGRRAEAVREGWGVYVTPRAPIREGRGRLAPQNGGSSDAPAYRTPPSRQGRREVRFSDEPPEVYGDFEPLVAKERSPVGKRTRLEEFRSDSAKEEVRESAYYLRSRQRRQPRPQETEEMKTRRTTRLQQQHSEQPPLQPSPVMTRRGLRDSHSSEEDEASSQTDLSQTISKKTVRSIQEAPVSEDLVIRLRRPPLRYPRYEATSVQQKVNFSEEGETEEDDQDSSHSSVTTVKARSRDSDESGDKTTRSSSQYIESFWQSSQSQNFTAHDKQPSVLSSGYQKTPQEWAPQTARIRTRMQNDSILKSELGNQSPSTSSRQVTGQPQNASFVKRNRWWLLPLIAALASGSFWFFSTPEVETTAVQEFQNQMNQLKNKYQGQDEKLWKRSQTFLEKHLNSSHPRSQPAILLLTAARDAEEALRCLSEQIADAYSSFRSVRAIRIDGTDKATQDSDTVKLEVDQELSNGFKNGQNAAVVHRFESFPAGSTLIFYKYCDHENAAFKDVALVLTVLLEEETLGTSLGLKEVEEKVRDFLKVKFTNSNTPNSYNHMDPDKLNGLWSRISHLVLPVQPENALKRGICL
Method summary: LAP1 binders from COS7 cell lysate, primary screen, small-molecule microarray, 635/667 nm fluorescence (AID 1116)
Run conditions: COS7-hLAP1 lysate binding, 635 nm fluorescence, higher = more signal
Measurement label: composite z-score
Please state the value as a number alone, without comment.

>  <Compound>
COC(=O)C(CC#Cc1ccc2c(c1)[C@]1(C(=O)N2)[C@H](c2ccc(O)cc2)N2[C@H](c3ccccc3)[C@H](c3ccccc3)OC(=O)[C@H]2[C@@H]1C(=O)Nc1nc2ccccc2s1)C(=O)OC

>  <composite z-score>
1.63

$$$$
>  <Compound>
CC(C)(C)OC(=O)CC[C@]1(C(=O)NCC(O)CO)COC(c2ccc(OCCCO)cc2)=N1 (some centres undefined)

>  <composite z-score>
1.7

$$$$
>  <Compound>
COc1ccc(CCNC(=O)[C@@H]2c3ccccc3C(=O)N(C3Cc4ccccc4C3)[C@H]2c2ccc(CO)cc2)cc1

>  <composite z-score>
1.24

$$$$

Please report the recorded composite z-score for `O=C(NCc1ccccc1)[C@@H]1c2ccccc2C(=O)N(CC23CC4CC(CC(C4)C2)C3)[C@H]1c1ccc(CO)cc1` .
0.575

Please report the recorded composite z-score for `NCCCCCNC(=O)[C@@H]1C[C@@H]2C(=O)N[C@@H](Cc3ccccc3)C(=O)N2[C@@H]1c1cccc(OCCO)c1` .
0.362

Please report the recorded composite z-score for N#Cc1ccc(NN2C(C(O)c3c(F)cccc3Cl)C=CC3C(=O)N(c4ccccc4)C(=O)C32)cc1 (centres undefined) .
2.65

Please report the recorded composite z-score for C=CCC(OC(C)=O)[C@@H]1[C@@H](N(Cc2ccc(-c3cccc(C(F)(F)F)c3)o2)C(=O)Cc2ccc(F)cc2)c2cc(OCCCO)ccc2N1C(=O)Cc1ccc(OC)cc1 (some centres undefined) .
-0.354

Please report the recorded composite z-score for `O=C1O[C@H](c2ccccc2)[C@H](c2ccccc2)N2[C@H]1[C@@H](C(=O)O)[C@]1(C(=O)Nc3ccc(C#CCCO)cc31)[C@H]2c1ccc(O)cc1` .
0.846

Please report the recorded composite z-score for `CCOC(=O)C[C@H]1[C@H](OC(=O)Cc2ccc3c(c2)OCO3)[C@@H](NC(=O)c2ccc3ccccc3c2)c2cc(OCCCO)ccc2N1C(=O)c1ccccc1` .
0.656

Please report the recorded composite z-score for O=C1OCCC/C=C\[C@H]2OC34C=CCN(Cc5ccccc5)C(=O)[C@H]3N(CCCCCCO)C(=O)[C@@H]4C12 (some centres undefined) .
-1.03

Please report the recorded composite z-score for `C=CCNC(=O)[C@@H]1[C@H]2C(=O)O[C@H](c3ccccc3)[C@H](c3ccccc3)N2[C@H](c2ccc(OCCO)cc2)[C@@]12C(=O)Nc1ccc(C#CCCO)cc12` .
2.12

Please report the recorded composite z-score for `COc1ccc([C@H]2C[C@H]3C(Br)=C[C@@H]2C(=O)[C@]32CO2)cc1` .
0.252

Please report the recorded composite z-score for `C=C[C@H](COC(C)=O)N(C(=O)OC(C)(C)C)S(=O)(=O)c1ccc(Br)cc1` .
0.395

Please report the recorded composite z-score for `COc1ccc(CCNC(=O)[C@@]2(Sc3ccc(C)cc3)CC(=O)N(C3CCCCC3)[C@@H]2c2ccc(CO)cc2I)cc1` .
0.95
